Quick reference for MIC99 among some compounds
- System: Aspergillus clavatus
- experiment_notes: Antimicrobial activity against Aspergillus clavatus MTCC 1323
- Format: functional
Quick reminder: number only, in µg/mL, skip the unit.

// worked examples, MIC99 included
structure=O=c1c2ccccc2nc(-c2ccccc2Cl)n1CCc1ccc2nc(-c3ccccc3Cl)n(-c3ccc(Br)cc3)c(=O)c2c1 unit_of_measure=µg/mL observed=1000
structure=Cc1ccc(-n2c(-c3ccccc3Cl)nc3ccc(CCn4c(-c5ccccc5Cl)nc5ccccc5c4=O)cc3c2=O)c([N+](=O)[O-])c1 unit_of_measure=µg/mL observed=100
structure=O=c1c2ccccc2nc(-c2ccccc2Cl)n1CCc1ccc2nc(-c3ccccc3Cl)n(-c3ccc(Cl)c(Cl)c3)c(=O)c2c1 unit_of_measure=µg/mL observed=100
structure=Cc1cccc(-n2c(-c3ccccc3Cl)nc3ccc(CCn4c(-c5ccccc5Cl)nc5ccccc5c4=O)cc3c2=O)c1C unit_of_measure=µg/mL observed=500

Challenge: Requested read-out: MIC99. Entry: "COC1=CC(=O)C[C@@H](C)[C@]12Oc1c(Cl)c(OC)cc(OC)c1C2=O"
Response given: 100

Challenge: What MIC99 value was documented for this compound, "Cc1ccc(C)c(-n2c(-c3ccccc3Cl)nc3ccc(CCn4c(-c5ccccc5Cl)nc5ccccc5c4=O)cc3c2=O)c1" ?
Response given: 500
